# Tested on: HaCaT keratinocytes
# method summary: Cell viability assay (MTT)
# Type: cell-based, human
# condition label: 48 h, 100.0 µM
measured attribute: cell viability

Look at this compound and give its reported cell viability. C=C(C)C1CCC23C(O)CCC(C)C2(C)CCC(C)C3C1c1c[nH]c2ccccc12 (stereo not drawn) [Compound 5, 10,23-dihydro-24,25-dehydroaflavinine]
16.8 ± 0.2 % of control

Same question, Cc1c(C)c(O)c2c(c1C)C(C)(O)OC2=O (stereo not drawn) [Compound 3, sclerolide] this time
69.4 ± 3.5 % of control

Would you mind doing COc1c(OC)c(-c2c[nH]c3ccccc23)c(OC)c(OC)c1-c1c[nH]c2ccccc12 [Compound 7, asterriquinol D dimethyl ether] as well?
40.1 ± 2.9 % of control

Field entry: COC1=C(c2c[nH]c3ccccc23)C(=O)C(CC=C(C)C)=C(c2c[nH]c3ccccc23)C1=O [Compound 6, kumbicin D]
11.6 ± 3.5 % of control

Item: COc1c(OC)c(-c2c[nH]c3ccc(O)cc23)c(OC)c(OC)c1-c1c[nH]c2ccccc12 [Compound 8, petromurin C]
36.8 ± 7.0 % of control

Please do the same for Cc1c(C)c(O)c2c(c1C)C(C)C(=O)OC2=O (stereo not drawn) [Compound 4, sclerin] as well.
51.5 ± 2.1 % of control

---

Please provide measured MIC50 for the entries that follow.
# Tested on: Staphylococcus aureus ATCC 21027
# method summary: Antimicrobial assay, growth inhibition (optical density)
# Assay type: cell-based
# condition label: Staphylococcus aureus, ATCC21027, 18 h, S. aureus, 18 h

Given the compound Cc1c(C)c(O)c2c(c1C)C(C)(O)OC2=O (stereo not drawn) [Compound 3, sclerolide] , what is its reported MIC50?
20.3 µM

COc1c(OC)c(-c2c[nH]c3ccccc23)c(OC)c(OC)c1-c1c[nH]c2ccccc12 [Compound 7, asterriquinol D dimethyl ether] , same question.
> 100 µM

Please answer likewise for CNC(C)C1CCC(N)C(OC2C(N)CC(N)C(OC3OCC(C)(O)C(NC)C3O)C2O)O1 (stereo not drawn) [Gentamycin, reference compound]
4.52 µM

Can you check COC1=C(c2c[nH]c3ccccc23)C(=O)C(CC=C(C)C)=C(c2c[nH]c3ccccc23)C1=O [Compound 6, kumbicin D] next?
7 to 11 µM

Next up: Cc1c(C)c(O)c2c(c1C)C(C)C(=O)OC2=O (stereo not drawn) [Compound 4, sclerin]
> 100 µM

Queued: COc1c(OC)c(-c2c[nH]c3ccc(O)cc23)c(OC)c(OC)c1-c1c[nH]c2ccccc12 [Compound 8, petromurin C]
26 to 52 µM

---

I'd appreciate it if you could supply cell viability values for the items below.
# System: MCF-7 breast cancer cells
# method summary: Cell viability assay (MTT)
# Assay type: cell-based, human
# condition label: MCF-7, 48 h, 10.0 µM
# Method: Rat cardiomyocyte H9c2 cells were kindly provided by Prof. Dr. Gunhild von Amsberg from the Martini-Klinik Prostate Cancer Center, University Hospital Hamburg-Eppendorf, Hamburg, Germany. […] Compounds at concentrations up to 100 µM were added to the wells for 24h or 48 h, and the viability of the cells was measured using an MTT (3-(4,5-dimethylthiazol-2-yl)-2,5-diphenyltetrazolium bromide) assay, which was performed according to the manufacturer’s instructions (Sigma-Aldrich, Munich, Germany). […]

Please report the recorded cell viability for `COc1c(OC)c(-c2c[nH]c3ccc(O)cc23)c(OC)c(OC)c1-c1c[nH]c2ccccc12` .
70.6 ± 8.5 % of control

And for Cc1c(C)c(O)c2c(c1C)C(C)(O)OC2=O (stereo not drawn) [Compound 3, sclerolide] ?
76.0 ± 2.6 % of control

`COC1=C(c2c[nH]c3ccccc23)C(=O)C(CC=C(C)C)=C(c2c[nH]c3ccccc23)C1=O` , same question.
76.8 ± 3.8 % of control

Param item: `COc1c(OC)c(-c2c[nH]c3ccccc23)c(OC)c(OC)c1-c1c[nH]c2ccccc12`
70.0 ± 5.2 % of control

Please give the result for C=C(C)C1CCC23C(O)CCC(C)C2(C)CCC(C)C3C1c1c[nH]c2ccccc12 (stereo not drawn) [Compound 5, 10,23-dihydro-24,25-dehydroaflavinine] too.
81.6 ± 3.3 % of control

How about Cc1c(C)c(O)c2c(c1C)C(C)C(=O)OC2=O (stereo not drawn) ?
95.9 ± 3.5 % of control
